IC50 for assorted compounds
# experimental target: UniProt:P48775
# experimental protocol: hTDO biochemical coupled assay
# applied conditions: 330 μM L-tryptophan, 17 minutes, room temperature; read-out: hTDO biochemical assay pIC50 (converted)

Illustrative cases are given below, each with its answer.
CC(=O)NCCN1CCN(c2cc(Cl)cc3[nH]ncc23)CC1(C)C [Compound 421] | < 3.16 µM
CC1(C)CN(c2cc(Cl)cc3c(N)n[nH]c23)CCN1S(C)(=O)=O [Compound 321] | > 100 µM
CS(=O)(=O)Nc1ccc(C2CCN(c3cc(Cl)cc4[nH]ncc34)CC2)cc1 [Compound 437] | < 3.16 µM

Give the reported IC50 for this compound. CS(=O)(=O)N1CCN(c2cc(Cl)cc3[nH]ncc23)C2CCCCC21 (single isomer, unassigned) [Compound 385]
> 100 µM

Write down IC50 measured for item CS(=O)(=O)c1ccc(-c2cc(Cl)cc3[nH]ncc23)cc1F [Compound 265]
< 3.16 µM

Output measured IC50 for this item: CNC(=O)c1ccc(-c2cc(Cl)cc3[nH]ncc23)cc1 [Compound 257]
< 3.16 µM

State its IC50: CC1(C)CN(c2cc(Cl)cc3[nH]ncc23)CCN1S(N)(=O)=O [Compound 227]
< 3.16 µM

Report IC50 for CC(=O)N1CCC(c2cccc3[nH]ncc23)CC1 [Compound 14]
32.4 to 100 µM

State, in one line, measured IC50 of Clc1cc(N2CCN(c3nccs3)CC2)c2cn[nH]c2c1 [Compound 365]
< 3.16 µM

###

molecules and their reported IC50
# experimental target: IDO (Homo sapiens, UniProt P14902)
# Sequence (P14902 whole entry): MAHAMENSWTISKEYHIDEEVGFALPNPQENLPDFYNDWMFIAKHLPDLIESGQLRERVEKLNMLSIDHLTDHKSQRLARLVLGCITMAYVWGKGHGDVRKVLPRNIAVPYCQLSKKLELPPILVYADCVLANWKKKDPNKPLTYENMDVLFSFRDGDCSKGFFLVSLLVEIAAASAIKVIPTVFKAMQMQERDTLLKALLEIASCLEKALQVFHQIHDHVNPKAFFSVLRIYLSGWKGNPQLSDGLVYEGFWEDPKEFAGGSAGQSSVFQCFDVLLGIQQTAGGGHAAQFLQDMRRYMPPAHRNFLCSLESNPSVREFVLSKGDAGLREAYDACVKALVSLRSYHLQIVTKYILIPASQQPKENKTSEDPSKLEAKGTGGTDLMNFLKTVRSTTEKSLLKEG
# experimental protocol: hIDO biochemical coupled assay
# applied conditions: 45 μM L-tryptophan, 17 minutes, room temperature; read-out: hIDO biochemical assay pIC50 (converted)

Examples with answers:
O=S(=O)(C1CC1)N1CCN(c2cccc3[nH]ncc23)CC1 | > 100 µM
O=C1NC2(CCN(c3cc(Cl)cc4[nH]ncc34)CC2)C(=O)N1CC1CCCCC1 | < 3.16 µM
CC(=O)NCC1(C)CN(c2cc(Cl)cc3[nH]ncc23)C1 | > 100 µM

State its IC50 for this molecule: Clc1cc(N2CCc3ccccc3C2)c2cn[nH]c2c1
> 100 µM

Output measured IC50 for this item: Clc1cc(N2CCC(c3ncc[nH]3)CC2)c2cn[nH]c2c1
> 100 µM

State its IC50: O=C1NC2(CCN(c3cc(Cl)cc4[nH]ncc34)CC2)C(=O)N1CC1CC1
< 3.16 µM

Entry C[C@H]1CN(S(C)(=O)=O)CCN1c1cc(C(F)(F)F)cc2[nH]ncc12 needs its IC50 filled in; supply it.
32.4 to 100 µM

Report IC50, nothing else, for this molecule: Nc1ccnn1C1CCN(c2cc(Cl)cc3[nH]ncc23)CC1
< 3.16 µM

Answer with reported IC50 of CS(=O)(=O)NCCN1CCN(c2cc(Cl)cc3[nH]ncc23)CC1
> 100 µM

Fill in IC50 for record O=C1CCC2(CCN1)CCN(c1cc(Cl)cc3[nH]ncc13)CC2
3.24 to 31.6 µM

###

# experimental target: TDO (Homo sapiens, UniProt P48775)
# Sequence (P48775 whole entry): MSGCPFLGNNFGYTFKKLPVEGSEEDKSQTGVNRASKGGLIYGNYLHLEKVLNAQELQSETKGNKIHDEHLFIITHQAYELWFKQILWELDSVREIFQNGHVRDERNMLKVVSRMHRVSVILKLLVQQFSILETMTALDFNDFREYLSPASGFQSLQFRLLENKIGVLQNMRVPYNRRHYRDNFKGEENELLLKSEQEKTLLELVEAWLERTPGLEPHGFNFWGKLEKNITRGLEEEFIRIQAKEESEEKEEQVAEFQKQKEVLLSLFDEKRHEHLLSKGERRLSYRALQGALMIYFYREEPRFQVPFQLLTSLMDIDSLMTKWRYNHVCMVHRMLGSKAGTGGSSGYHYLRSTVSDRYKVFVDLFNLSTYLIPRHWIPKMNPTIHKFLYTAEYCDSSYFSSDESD
# experimental protocol: A172 kynurenine cell-based assay
# Parameters: This assay utilised cancer cells which expressed either TDO or IDO; endogenous in cells; host or cells: A172 (human glioblastoma)
# applied conditions: A172 human glioblastoma cells, 48 hours, 500 μM L-tryptophan; read-out: A172 Kynurenine cell based assay pIC50 (converted)
observation type: IC50

CS(=O)(=O)N1CCN(c2cc(Cl)cc3[nH]ncc23)CC12CCC2 [Compound 181] | < 3.16 µM

Lab note: next compound to report on.
Give the measured IC50 for CN1CCN(c2cc(Cl)cc3[nH]ncc23)CC1 [Compound 95]
3.24 to 31.6 µM

###

Consider the following molecules and their measured IC50 readings.
# experimental target: IDO (Homo sapiens, UniProt P14902)
# experimental protocol: hIDO biochemical coupled assay
# applied conditions: 45 μM L-tryptophan, 17 minutes, room temperature; read-out: hIDO biochemical assay pIC50 (converted)

Consider the reported IC50 for these molecules:
Cn1cc2c(n1)CN(c1cc(Cl)cc3[nH]ncc13)CC2 | > 100 µM
O=S(=O)(c1ccccc1)N1CCN(c2cccc3[nH]ncc23)CC1 | > 100 µM
O=S(=O)(Nc1cccc2[nH]ncc12)c1ccccc1 | > 100 µM
CC(=O)N(C)c1cc(C2CCN(S(C)(=O)=O)CC2)c2cn[nH]c2c1 | > 100 µM
O=C1N[C@H]2CC[C@@H]1CN(c1cc(C(F)(F)F)cc3[nH]ncc13)C2 | 3.24 to 31.6 µM
CS(=O)(=O)N1CCC(c2cc(N3CCCC3)cc3[nH]ncc23)CC1 | > 100 µM

Provide measured IC50 value, entry: CC(=O)Nc1ccc(C2CCN(c3cc(Cl)cc4[nH]ncc34)CC2)cc1
> 100 µM

Please indicate IC50 recorded for CC(=O)N1CCN(c2cc(OC(F)(F)F)cc3[nH]ncc23)CC1
> 100 µM

Tell me IC50 reported for NS(=O)(=O)N1CCC2(CCN(c3cc(Cl)cc4[nH]ncc34)CC2)C1
3.24 to 31.6 µM

For the molecule CN(c1cc(N2CCN(S(C)(=O)=O)C(C)(C)C2)c2cn[nH]c2c1)S(C)(=O)=O , give its reported IC50.
> 100 µM

Kindly indicate its recorded IC50. Item: CS(=O)(=O)N1CCN(c2cc(C(F)(F)F)cc3[nH]ncc23)C2CCCCC21 (single isomer, unassigned) [Compound 415]
> 100 µM

Indicate its recorded IC50; the molecule in question is CC(=O)N1CCC(CNC(=O)c2cc(Cl)cc3[nH]ncc23)CC1
> 100 µM

Supply reported IC50 belonging to this molecule: CC(=O)N(C)C1CCN(c2cc(Cl)cc3[nH]ncc23)C1 (stereo not drawn)
32.4 to 100 µM

Please give the documented IC50 of CNC(=O)C1(C)CCN(c2cc(Cl)cc3[nH]ncc23)CC1
> 100 µM

Note IC50 for the molecule shown: O[C@@H]1CCCC[C@@H]1c1cc(Cl)cc2[nH]ncc12
> 100 µM

Name the recorded IC50 of the molecule listed here: CS(=O)(=O)N1CCN(c2cc(Cl)cc3[nH]ncc23)C2CCCCC21 (single isomer, unassigned) [Compound 385]
> 100 µM

Assign IC50 to the following record: CC(=O)Nc1cc(N2CCN(S(C)(=O)=O)C(C)(C)C2)c2cn[nH]c2c1
> 100 µM

State, in one line, measured IC50 of CNC(=O)CN1CCC(c2cc(Cl)cc3[nH]ncc23)CC1
> 100 µM

###

# experimental target: IDO (Homo sapiens, UniProt P14902)
# experimental protocol: hIDO biochemical coupled assay
# applied conditions: 45 μM L-tryptophan, 17 minutes, room temperature; read-out: hIDO biochemical assay pIC50 (converted)
observation type: IC50

Clc1cc(-c2cnn(-c3ccccc3)c2)c2cn[nH]c2c1 | > 100 µM

Let me know recorded IC50 for CNC(=O)C1CCN(c2cc(Cl)cc3[nH]ncc23)C1 (stereo not shown) , thanks.
3.24 to 31.6 µM

Return the recorded IC50 value; entry: OC1(c2cc(Cl)cc3[nH]ncc23)CCC(F)(F)CC1
3.24 to 31.6 µM

Give IC50 for O=C1NC2(CCN(c3cc(Cl)cc4[nH]ncc34)CC2)C(=O)N1CC1CCOCC1
< 3.16 µM

Hello, please tell me recorded IC50 for this one: COC(=O)CN1CCN(c2cc(Cl)cc3[nH]ncc23)CC1(C)C
32.4 to 100 µM

Using known records, supply IC50 for CC(=O)N1CC2(CCN(c3cc(Cl)cc4[nH]ncc34)CC2)C1
3.24 to 31.6 µM

###

# experimental target: IDO (Homo sapiens)
# experimental protocol: SKOV3 kynurenine cell-based assay (IDO induced by IFN-γ)
# Parameters: IDO expression was induced in the SKOV3 cells by the addition of 500 ng/ml IFN-γ; endogenous in cells; host or cells: SKOV3 (human ovarian adenocarcinoma), induced with IFN-γ
# applied conditions: SKOV3 human ovarian adenocarcinoma cells, 500 ng/ml IFN-γ, 48 hours, 500 μM L-tryptophan; read-out: SKOV3 Kynurenine cell based assay pIC50 (converted)
observation type: IC50

Example results:
Cn1ccnc1CN1C(=O)NC2(CCN(c3cc(Cl)cc4[nH]ncc34)CC2)C1=O | < 3.16 µM
CS(=O)(=O)N1CCC(Oc2cccc3[nH]ncc23)CC1 | 32.4 to 100 µM
CN1CC2CN(c3cc(Cl)cc4[nH]ncc34)CCN2C1=O (stereo not shown) | 3.24 to 31.6 µM

Write down measured IC50 (IDO (Homo sapiens)) for this molecule. O=S(=O)(C1CCCC1)N1CCC(c2cc(Cl)cc3[nH]ncc23)CC1
3.24 to 31.6 µM

Under IDO (Homo sapiens): report IC50 of CS(=O)(=O)N1CCN(c2cc(OC(F)(F)F)cc3[nH]ncc23)CC1 .
32.4 to 100 µM

Identify measured IC50 obtained with IDO (Homo sapiens) for CC(=O)N1CCC(Oc2cc(Cl)cc3[nH]ncc23)CC1 .
3.24 to 31.6 µM

The origin of these recorded values is patent US10590086B2.
